# Test system: LOX IMVI
# METHOD NOTES: NCI tumour cell line growth inhibition, 48 h
Activity calls are given as the source filed them. Rule as the data show it: active = GI50 up to about 1.1 µM and inactive = higher.
Give your call using only these classes: true (1) for active, false (0) for inactive

The examples below pair each entry with its known result.
MOLECULE	CLASS ASSIGNMENT
C=CN(C=C)C(=O)Cn1cc(-c2ccccc2)nn1	false (0)
Cc1cn([C@@H]2C[C@H](CO)[C@@H](O)C2)c(=O)[nH]c1=O	false (0)
CCN(CC)C(=S)N/N=C1\C(=O)Nc2ccccc21	true (1)
COc1ccc(/C=C2\Sc3nnc(CNc4ccc(Cl)cc4)n3N=C2c2cc(F)c(Cl)cc2Cl)cc1OC	false (0)
c1ccc(NNN2NC(c3ccccc3)C2c2ccccc2)cc1 (stereo unspecified)	false (0)

# next molecule below
input: Query: recorded result category for Cc1nnc(SCc2nc(C#N)c(C#N)nc2CSc2nnc(C)s2)s1 in this test
output: false (0)

###

This document collects GI50 values reported for HCT-15.

Some solved entries appear below for comparison.
COMPOUND	SYSTEM	GI50
O=S(=O)(c1ccccc1)C1(CCC2OCCO2)C=CC2(CC1)OCCO2 (stereo unspecified)	HCT-15	> 100 µM
CC(CCOc1c2ccoc2cc2oc(=O)ccc12)C1=CC(=O)C(C)(C)O1 (stereo unspecified)	HCT-15	> 100 µM
CCCC(CCC)C(=O)O [VALPROIC ACID]	HCT-15	8090 µM
Cn1cnc([N+](=O)[O-])c1Sc1nc(N)nc2c1ncn2[C@H]1C[C@H](O)[C@@H](CO)O1	HCT-15	4.17 µM
NC1CC(=O)c2c(Cl)sc(Cl)c21 (stereo unspecified)	HCT-15	1.63 µM

Let's switch to this compound now.
input: Respond only with GI50 recorded for C[n+]1cn(-c2ccc([N+](=O)[O-])cn2)c2ccccc21
output: > 100 µM

###

# Tested on: NCI-H226
# METHOD NOTES: NCI tumour cell line growth inhibition, 48 h
Calls of active or inactive are those of the source. Rule as the data show it: active = GI50 up to about 1.1 µM and inactive = higher.
// GI50 lookup, one value per entry

Some solved entries appear below for comparison.
MOLECULE	GI50
O=C1c2ccccc2C(=O)c2nc3c(O)cccc3cc21	74.5 µM (inactive)
CC(C)(C)OC(=O)C1=C(O)C(C(=O)OC(C)(C)C)C23CCCCC12C(C(=O)OC(C)(C)C)C(O)=C3C(=O)OC(C)(C)C (stereo not given)	> 100 µM (inactive)
CSc1nc(=O)n(CCC#N)nc1SC	39.3 µM (inactive)

input: Respond only with GI50 recorded for O=C(NCCN(CCNC(=O)c1cccc(=O)n1O)CCN(CCNC(=O)c1cccc(=O)n1O)CCNC(=O)c1cccc(=O)n1O)c1cccc(=O)n1O
output: > 100 µM (inactive)

input: Respond only with GI50 recorded for CNc1ccc(/C=C2\C=Cc3ccccc32)cc1
output: 25.1 µM (inactive)

###

// GI50 lookup, one value per entry
# Test system: Hs-578T
# METHOD NOTES: NCI tumour cell line growth inhibition, 48 h
Calls of active or inactive are those of the source. No stated cut-off is given here; in the data, active = GI50 up to about 1.1 µM and inactive = higher.

Some solved entries appear below for comparison.
COMPOUND	GI50
Cc1cccc(N(CCC#N)S(=O)(=O)c2ccccc2)c1	> 100 µM (inactive)
CP(C)(=S)P(C)(C)=S	> 100 µM (inactive)
S=c1nc(N2CCCCC2)c2cn[nH]c2[nH]1	57.4 µM (inactive)
COc1ccc(C2CC(C)(O)Oc3cc4c(cc32)OCO4)cc1 (stereo unspecified)	26.6 µM (inactive)
O=C1c2cccc([N+](=O)[O-])c2C(=O)N1Cc1ccccc1	> 100 µM (inactive)

input: Respond only with GI50 recorded for Cc1nnc(SCc2nc(C#N)c(C#N)nc2CSc2nnc(C)s2)s1
output: 17.1 µM (inactive)

input: Respond only with GI50 recorded for NC1CC(=O)c2c(Cl)sc(Cl)c21 (stereo unspecified)
output: 19.2 µM (inactive)

input: Respond only with GI50 recorded for CCOC(=O)N(C)C1(c2ccccc2)CCN(CCCC(=O)c2ccc(F)cc2)CC1
output: 49 µM (inactive)

input: Respond only with GI50 recorded for CN1c2ccccc2C2=C(c3ccccc3)CC[C@@H](C(=O)N3C4CC5CC[C@@]4(CS3(=O)=O)C5(C)C)[C@@H]21 (stereo partly specified)
output: > 100 µM (inactive)

input: Respond only with GI50 recorded for COc1ccc(-n2c3c(c4cc(O)ccc42)C(=O)c2ccccc2C3=O)cc1
output: 7.24 µM (inactive)

input: Respond only with GI50 recorded for O=[N+]([O-])C(=C(N1CCOCC1)N1CCOCC1)/C(Cl)=C(\Cl)Br
output: > 100 µM (inactive)

From: ChEMBL document CHEMBL1201862
